System: MDA-MB-468 breast
Assay: NCI-60 one-dose screen, 48 h (100 = growth as untreated, 0 = no growth, -100 = all killed)
Details: 10 µM unless noted
Compounds without any hit were thinned out: in the full panel of roughly 83,000, 20% have a hit.
# reported growth; entries follow
value.kind: growth (%)

INSERT INTO measurements (molecule, observed_value) VALUES
  ('COc1ccc(C2=Cn3c(CCC(=O)c4nc5ccccc5[nH]4)nnc3SC2)cc1', 77.4),
  ('Nc1ccc(-n2c(=O)oc3ccc(Cl)cc3c2=O)c(Cl)c1', -6.87),
  ('CCOCC(O)(c1ccc(Cl)cc1)c1ccc(Cl)cc1', 102),
  ('O=[N+]([O-])c1ccc(O)c(-c2nc3ccccc3s2)c1', 63.5),
  ('O=C(CN1C(=O)S/C(=C\C(Cl)=C\c2ccccc2)C1=O)NC1CCS(=O)(=O)C1 (stereo not given)', 8.17),
  ('Cc1nc2ncccc2nc1Nc1ccc(S(=O)(=O)Nc2ccccn2)cc1', 109),
  ('NS(=O)(=O)c1ccc(C(=O)NN2C(=O)c3c(Br)c(Br)c(Br)c(Br)c3C2=O)cc1', 111),
  ('Cc1cc(C)c(S(=O)O)c(C)c1', 106),
  ('CCn1cnc2c1c(=O)[nH]c(=O)n2CC1CCC(CNS(=O)(=O)c2ccc(OC3CCOCC3)c(F)c2)CC1 (stereo not given)', 30.5),
  ('COc1ccc(S(=O)(=O)n2cc(C3OC(c4cc(OC)c(OC)c(OC)c4)=NN3C(C)=O)c3ccccc32)cc1OC (stereo not given)', 105);

* * *

System: MDA-MB-468 breast
Test: NCI-60 one-dose screen, 48 h (100 = growth as untreated, 0 = no growth, -100 = all killed)
Conditions: 10 µM unless noted
The panel holds about 83,000 compounds, 20% with a hit somewhere; the sample as a whole holds those more often.
# reported growth; entries follow
value.kind: growth (%)

INSERT INTO results (compound, result_unit, observed_value) VALUES
  ('O=S(=O)(NCCCNc1cc(-c2cn(-c3ccccc3)nc2-c2cccc(O)c2)ccn1)c1ccccc1', '%', 4.3),
  ('Cc1ccc(-c2nc(SCC(=O)N3CCN(c4cc5c(cc4F)c(=O)c(C(=O)O)cn5C4CC4)CC3)nc(Cl)c2C#N)cc1', '%', 95),
  ('O=c1[nH]nc(-c2ccc(Br)cc2)cc1Cc1ccc(O)cc1', '%', 107),
  ('Cc1ccc(NC(=S)NNC(=S)NNc2ccccc2)cc1C', '%', 99.6),
  ('COc1cc(O)c2c(=O)c3c(CC=C(C)C)cc(OC)c(O)c3oc2c1', '%', 64.6),
  ('COc1ccc(C(=O)c2cc(OC)c(OC)c(OC)c2)cc1/C=C/C(=O)c1ccc(F)cc1', '%', 90.4),
  ('COc1cc2c(c(OC)c1OC)C(=O)CC(c1cccc(NC(=O)c3ccccc3Br)c1)O2 (stereo unspecified)', '%', 85.1),
  ('COc1ccc(N=Nc2cc(OC)c(OC)c(OC)c2)cc1', '%', 80.9),
  ('CC1=CC=C(NC(=O)/C=C/c2ccccc2)CC1Nc1nccc(-c2cccnc2)n1 (stereo unspecified)', '%', 3.07),
  ('CCCCNc1nc(NC(C)(C)C)nc(NC(C)(C)C)n1', '%', 78.5),
  ('CC(Oc1ccc(C(=O)NS(=O)(=O)C(C)(C)C)cc1C(F)(F)F)c1ccc(Oc2ccccc2)cn1 (stereo unspecified)', '%', 71.8),
  ('CCOC(=O)CN1/C(=N/c2sc3c(c2C(=O)OCC)CCN(C(=O)OCC)C3)SC(=O)/C1=C\C(=O)OC', '%', 79.6),
  ('COc1ccc2[nH]c(=O)c(/C=C/C(=O)/C=C/c3ccc(O)c(OC)c3)cc2c1', '%', -32.1),
  ('O=C(O)c1cn(C2CC2)c2cc(N3CCN(C(=O)C[n+]4cccc5ccccc54)CC3)c(F)cc2c1=O', '%', 71.4),
  ('COc1cc(OC)c(/C=C/C(=O)c2c(OC)cccc2OC)c(OC)c1', '%', -15.6),
  ('Nc1ccc2c(c1)C1(CCC2)NC(=O)NC1=O (stereo unspecified)', '%', 97.4),
  ('C=C1C(=O)C2CCC1C2 (stereo unspecified)', '%', 110),
  ('COc1cc(/C=C/C(=O)c2ccc(NC(=O)CSc3nnc(-c4ccc5nc(-c6ccccc6)[nH]c5c4)o3)cc2)cc(OC)c1OC', '%', 94.9),
  ('CCOC(=O)c1coc(C(=O)OCC)c1C(=O)OCC', '%', 107),
  ('CSc1ccc(-c2ccccc(=O)c2O)cc1', '%', 11.5),
  ('COC(=O)C(=[N+]=[N-])C(=O)c1ccc([N+](=O)[O-])o1', '%', 81.7),
  ('O=C(Cc1ccc([N+](=O)[O-])cc1)Oc1ccccc1', '%', 113),
  ('C#C[C@]1(O)CC[C@H]2[C@@H]3CC=C4c5sc(-c6ccc(OC)cc6)nc5CC[C@]4(C)[C@H]3CC[C@@]21C', '%', 71.6),
  ('Cc1onc2c(-c3ccccc3)n[nH]c(=O)c12', '%', 98.3),
  ('COc1ccc(-c2nc3c(c(=O)n2C(C)=O)C(c2ccc(Cl)cc2)c2sc4c(Cl)cccc4c2O3)cc1 (stereo unspecified)', '%', 5.77),
  ('Fc1ccc(-c2cn3c(-c4c[nH]c5ccc(Br)cc45)csc3n2)cc1', '%', 74.9),
  ('O=C1c2ccc3c4c(ccc(c24)C(=O)N1CCCNCc1ccccc1)C(=O)N(CCCNCc1ccccc1)C3=O', '%', -95.5),
  ('O=C(Nc1ccc(Oc2ncnc3scc(Nc4n[nH]c(=S)s4)c23)cc1)C1(C(=O)Nc2cccc(C(F)(F)F)c2)CC1', '%', -10.1),
  ('COc1ccc2nc3ccccc3c(NCc3ccc(Cl)cc3)c2c1', '%', -30.6),
  ('CCOc1ccc(C(C[N+](=O)[O-])Sc2ccccc2N)cc1 (stereo unspecified)', '%', -58.4),
  ('O=C(Nc1ccc(Cl)c([N+](=O)[O-])c1)Nc1nc2ccccc2s1', '%', 40.6),
  ('O=C(CCl)Nc1ccc(Cc2ccc(NC(=O)CCl)cc2)cc1', '%', -36.8),
  ('Cc1cn(C(=O)/C(Cl)=C(/Cl)C(=O)O)c2ccccc12', '%', 108),
  ('CCCNC(=S)N/N=C(\C)c1ccccn1', '%', -26.3),
  ('CC1=NN(c2cccc(Cl)c2)C(=O)/C1=C\C=C\c1ccccc1', '%', 9.96),
  ('O=C(CCN1CCCC1)Nc1ccc2c(NCc3ccc(F)cc3)c3ccccc3nc2c1', '%', -46.1),
  ('COc1ccc(NC(=O)CCCCCCNC(=O)C(O)(O)C(F)(F)F)cc1', '%', 31.8),
  ('COc1cc(/C(C)=C(\c2ccc(Cl)cc2)c2ccc(OCCN(C)C)cc2)ccc1F', '%', 45.6),
  ('N#Cc1c(-c2ccccc2)cc(-c2ccccc2)n(CCCC(=O)O)c1=O', '%', -27.1),
  ('NCCCOc1cc2ccccc2cc1C(=O)Nc1ccc(Cl)cc1OC(=O)c1cc2ccccc2cc1OCCCN', '%', -86),
  ('N#Cc1c(O)c2c(c(O)c1C#N)C(=O)c1ccccc1C2=O', '%', 7.71);

Data credit: PubChem BioAssay (NCI)
